- System: M14 melanoma
- assay: NCI-60 one-dose screen, 48 h
- experimental_parameters: 10 µM unless noted
The panel holds about 83,000 compounds, 20% with a hit somewhere; the sample as a whole holds those more often. Activity calls are given as the source filed them. Rule for the calls: active = growth percent below 10; inactive = the rest.
Tick one outcome: YES for active, NO for inactive

molecule | qualitative_label
O=C1NC(=O)C(=Cc2ccc(OCCCCC3CCCCC3)c(Cl)c2)C(=O)N1 | NO

Q: Which outcome did this test record for the molecule ClCCN(CCCl)Cc1ccc(Nc2ccnc3cc(Cl)ccc23)cc1 ?
A: NO

Q: Which outcome did this test record for the molecule O=[N+]([O-])c1c(Br)sc(Br)c1[N+](=O)[O-] ?
A: YES

Q: Which outcome did this test record for the molecule CCc1ccccc1[C@@H]1C[C@]2(C)CCO[C@@H]2OO1 ?
A: NO

Q: Which outcome did this test record for the molecule O=C1C2C(C(=O)[N]1[Hg][c]1ccccc1)C1(Cl)C(Cl)=C(Cl)C2(Cl)C1(Cl)Cl (stereo unspecified) ?
A: YES

Q: Which outcome did this test record for the molecule O=[As](O)(O)c1ccccc1[As](=O)(O)O ?
A: NO

* * *

- System: NCI-H522 lung
- assay: NCI-60 one-dose screen, 48 h (100 = growth as untreated, 0 = no growth, -100 = all killed)
- experimental_parameters: 10 µM unless noted
- Procedure: Growth inhibition of the NCI-H522 human Non-Small Cell Lung tumor cell line is measured as a screen for anti-cancer activity. Cells are grown in 96 well plates and exposed to the test compound for 48 hours. Compounds are tested at a single concentration, which is 10^-5 M for most compounds. The reported endpoint is percent growth (GI% or GIPRCNT), where numbers from 0 - 100% represent growth inhibition, and numbers from -100% - 0 represent cell death. […]
Compounds without any hit were thinned out: in the full panel of roughly 83,000, 20% have a hit.
measure: growth (%)
// units = %; emit number, no label

molecule | endpoint_unit | growth
CCCCCCCCC(CO)NCCc1ccccc1 (stereo not given) | % | 73.7
C[CH2][Sn]([Cl])([Cl])[CH2]C.Oc1ccccc1C=NCCN=Cc1ccccc1O | % | 9.48
CC[C@]12C=CCN3CC[C@]4(C(=C(C(=O)OC)C1)Nc1cc(OC)c(OC(C)=O)cc14)[C@@H]32 | % | -1.97
CCCC[C@H](NC(=O)[C@H]1CCCN1C)C(=O)N(C)[C@H](C[C@@H](OC(C)=O)c1nc(C(=O)N[C@@H](Cc2ccccc2)C[C@H](C)C(=O)OCC)cs1)C(C)C | % | -12.1

Field: next molecule
Q: Print NCI-H522 lung growth for N/C(=N\N=C\c1ccc(-c2ccccc2)cc1)N[N+](=O)[O-] .
A: 18.2

* * *

- Test system: M14 melanoma
- assay: NCI-60 one-dose screen, 48 h (100 = growth as untreated, 0 = no growth, -100 = all killed)
- experimental_parameters: 10 µM unless noted
The panel holds about 83,000 compounds, 20% with a hit somewhere; the sample as a whole holds those more often.
Recorded growth values for a group of molecules are listed next.
// units = %; emit number, no label

Examples from the recorded data:
cpd_smiles | measured_target | growth / %
Cc1c2cc(Cl)c3ccccc3c2c[n+]2ccccc12 | M14 melanoma | 47.5
O=Cc1cn(Cc2ccc(Cl)cc2)c2ccccc12 | M14 melanoma | 83.8
C/C(=C\c1ccn(-c2ccc(N)cc2)n1)[C@@H]1C[C@@H]2O[C@]2(C)CCC[C@H](C)[C@H](O)[C@@H](C)C(=O)C(C)(C)[C@@H](O)CC(=O)O1 | M14 melanoma | -17
CCCC[C@H](NC(=O)[C@H]1CCCN1C)C(=O)N(C)[C@H](C[C@@H](OC(C)=O)c1nc(C(=O)N[C@@H](Cc2ccccc2)C[C@H](C)C(=O)OCC)cs1)C(C)C | M14 melanoma | -12
COc1cc2ncnc(Nc3ccc(F)c(Cl)c3)c2cc1OCC(=O)N1CCN(C)CC1 | M14 melanoma | 97.5

Q: State its growth for this molecule: O=C(CN1CCN(C(=O)c2ccco2)CC1)Nc1ccc(Cl)cc1C(=O)c1ccccc1Cl
A: 90.4

Q: State its growth for this molecule: CC[C@H](C)[C@H](NC(=O)c1nccn1C)C(=O)N(C)[C@H](C[C@@H](OC(C)=O)c1nc(C(=O)N[C@@H](Cc2ccccc2)C[C@H](C)C(=O)OC)cs1)C(C)C
A: 3.12

Q: State its growth for this molecule: COc1ccc2c(c1)c(-c1nc(-c3cn(C)c4ncccc34)cs1)cn2CCN1CCOCC1
A: 31.9

* * *

- Tested on: SF-295 CNS
- assay: NCI-60 one-dose screen, 48 h (100 = growth as untreated, 0 = no growth, -100 = all killed)
- experimental_parameters: 10 µM unless noted
Compounds without any hit were thinned out: in the full panel of roughly 83,000, 20% have a hit.
measure: growth (%)
// units = %; emit number, no label

cpd_smiles | measure | endpoint_unit | meas_value
CC[C@H](C)[C@H](NC(=O)[C@H]1CCCCN1C)C(=O)N(C)[C@H](C[C@@H](OC(C)=O)c1nc(C(=O)N[C@@H](Cc2ccccc2)C[C@H](C)C(=O)OC)cs1)C(C)C | growth | % | 2.06

Q: State its growth for this compound: CC1(C)N=C(N)N=C(N)N1c1ccc(OCCCNC(=O)Nc2ccc(S(=O)(=O)F)cc2)c(Cl)c1
A: 21.7

Q: State its growth for this compound: CNC(=O)Oc1cccc(C(F)(F)F)c1
A: 130

Q: State its growth for this compound: Cn1cc(C=O)c2nccnc21
A: 101

Q: State its growth for this compound: C=COC(=O)CCN1CC1
A: 101

* * *

- Tested on: NCI-H226 lung
- assay: NCI-60 one-dose screen, 48 h (100 = growth as untreated, 0 = no growth, -100 = all killed)
- experimental_parameters: 10 µM unless noted
About 83,000 compounds went through this panel and 20% of them were active in at least one assay; those are over-represented in the sample as a whole.
Recorded growth values for a group of compounds are listed next.
// units = %; emit number, no label

Examples from the recorded data:
compound | endpoint_unit | growth
CC1=C([Te]c2ccc(O)cc2)C(=O)c2ccccc2C1=O | % | -35.4
COc1cc(/C=C\c2cc(OC)c(OC)c(OC)c2)cc(NS(=O)(=O)c2cccc(Cl)c2)c1OC | % | 51.8
CCn1c2ccccc2c2cc(C(=O)c3cccc4c3CCCN4)ccc21 | % | 92.2

Q: State its growth for this compound: COc1ccc(O)c(CNC(=O)CN2CCCC2=O)c1
A: 99.4

Q: State its growth for this compound: COC(=O)[C@@H](C)C[C@H](Cc1cn(C)c2ccccc12)NC(=O)c1csc([C@@H](C[C@H](C(C)C)N(C)C(=O)[C@@H](NC(=O)[C@H]2CCCCN2C)C(C)C)OC(C)=O)n1
A: 18

Q: State its growth for this compound: CC(=O)O[C@H]1C(=O)[C@@]2(C)[C@H]([C@H](OC(=O)c3ccccc3)[C@]3(O)C[C@H](OC(=O)[C@H](OC(=O)OC[C@H]4COC(C)(C)O4)[C@@H](NC(=O)c4ccccc4)c4ccccc4)C(C)=C1C3(C)C)[C@]1(OC(C)=O)CO[C@@H]1C[C@@H]2O
A: 55.5

Q: State its growth for this compound: ClCCN(CCCl)c1ccc(-n2cnc3c(Cl)ncnc32)cc1
A: 97.5

Q: State its growth for this compound: C1CCC([PH+](C2CCCCC2)C2CCCCC2[PH+](C2CCCCC2)C2CCCCC2)CC1.O=C(C1[CH-]CCCC1)C1CCCC[N-]1.[Au] (stereo not given)
A: -60.1

Q: State its growth for this compound: COC(=O)[C@@H](C)C[C@H](Cc1ccccc1)NC(=O)c1csc([C@@H](C[C@H](C(C)C)N(C)C(=O)[C@@H](NC(=O)[C@H]2CCCCN2C)C(C)C)OC(C)=O)n1
A: 32.4

Q: State its growth for this compound: CC[CH2][Sn]([Cl])([Cl])[CH2]CC
A: 86.4

Q: State its growth for this compound: O=C(CCCC1CCCCC1)OCC(Cl)(Cl)Cl
A: 99

Q: State its growth for this compound: COc1ccc(N(CC(=O)NCCC[Te]c2ccccc2)C(=O)CCSC2=C(C)C(=O)c3ccccc3C2=O)cc1
A: -54.8

Q: State its growth for this compound: COC(=O)[C@H](Cc1c[nH]c2ccccc12)NC(=O)[C@@H](OC)[C@@H]1Cc2cc3cc(OC4CC(OC5CC(O)C(O)C(C)O5)C(O)C(C)O4)c(C)c(O)c3c(O)c2C(=O)[C@H]1OC1CC(OC2CC(OC3CC(C)(O)C(O)C(C)O3)C(O)C(C)O2)C(O)C(C)O1 (stereo not given in full)
A: -38.6

Q: State its growth for this compound: COc1ccc(/C=C\c2cc(OC)c(OC)c(OC)c2)c(NS(=O)(=O)c2ccc(C)cc2)c1O
A: 33.9

Q: State its growth for this compound: COc1cc2ncnc(Nc3ccc(F)c(Cl)c3)c2cc1OCC(=O)N1CCN(C)CC1
A: 102
